# Tested on: canine cutaneous mastocytoma cells
# method: Toxin response of mast cells (mastoparan, Streptolysin O, UVB)
# Assay type: cell-based
# appliedConditions: preincubation 10 and 100 μmol, compared with native FA
metricName: Relative differences: effect on toxin response of mast cells

CCCCCC=CCC=C(CC=CC/C=C\CCCC(=O)O)[N+](=O)[O-]	++
CCCCCCCC/C=C(\CCCCCCCC(=O)O)[N+](=O)[O-] [compound 9, 9-nitro-trans-oleic acid]	++
CCCCC/C=C\C/C(=C\CCCCCCCC(=O)O)[N+](=O)[O-] [compound 2, 10-nitro-cis-linoleic acid]	++
CCCCCCCC/C=C(/CCCCCCCCCCCC(=O)O)[N+](=O)[O-] [compound 17, 13-nitro-cis-13-docosenoic acid]	+

Data origin: patent US20130039956A1
